Assay: clinical
Design: species or system women
Conditions: human, in vivo, topical or ocular, t1/2 (Range)
ASSAY_ENDPOINT: half-life

According to the records, this compound CCC(=C(c1ccc(O)cc1)c1ccc(OCCN(C)C)cc1)c1ccccc1 [4-hydroxy tamoxifen] displays half-life of 58 to 118 h
